assay: Tissue distribution study in rabbits after oral Panax notoginseng extract with or without Borneol; format: in vivo, New Zealand rabbits; conditions: New Zealand, rabbit, lung, po, 3 mL·kg^−1, 1.0 h, oral Panax notoginseng, read-out: Concentration in lung
concentration at 1 h values by entry
Express your answer in ng/g, writing the number without its unit.

Ask: Consider the molecule CC(C)=CCC[C@](C)(O[C@@H]1O[C@H](CO)[C@@H](O)[C@H](O)[C@H]1O)[C@H]1CC[C@]2(C)[C@@H]1[C@H](O)C[C@@H]1[C@@]3(C)CC[C@H](O)C(C)(C)[C@@H]3[C@@H](O[C@@H]3O[C@H](CO)[C@@H](O)[C@H](O)[C@H]3O[C@@H]3O[C@@H](C)[C@H](O)[C@@H](O)[C@H]3O)C[C@]12C [GRe, ginsenoside Re] and give its measured concentration at 1 h.
Reply: 920

Now, please, on to the next molecule.
Ask: Consider the molecule CC(C)=CCC[C@](C)(O[C@@H]1O[C@H](CO)[C@@H](O)[C@H](O)[C@H]1O)[C@H]1CC[C@]2(C)[C@@H]1[C@H](O)C[C@@H]1[C@@]3(C)CC[C@H](O)C(C)(C)[C@@H]3[C@@H](O[C@@H]3O[C@H](CO)[C@@H](O)[C@H](O)[C@H]3O)C[C@]12C [GRg1, ginsenoside Rg1] and give its measured concentration at 1 h.
Reply: 15300

Measured values drawn from paper PMC3626250 for this set.
